Value source: patent US20050143427A1

# Test protocol: Drug plasma half-life assay (DPH-LA) and bioavailability in rat
# Format: in vivo
# Assay conditions: male, Wistar, rat, in vivo, po, 30 mg/kg, rat plasma, PO, 30 mg/kg; read-out: Mean T1/2 (converted)
Measured parameter: half-life

Sample smiles	Measured parameter	Result
CN1[C@H](C(=O)O)C[C@@H]2CCCC[C@@H]21.Cl	half-life	25.3 h

###

# Test target: alpha-2-delta receptor 2 (A2DR2) (Homo sapiens, UniProt Q9NY47)
# Sequence (Q9NY47 19-1150): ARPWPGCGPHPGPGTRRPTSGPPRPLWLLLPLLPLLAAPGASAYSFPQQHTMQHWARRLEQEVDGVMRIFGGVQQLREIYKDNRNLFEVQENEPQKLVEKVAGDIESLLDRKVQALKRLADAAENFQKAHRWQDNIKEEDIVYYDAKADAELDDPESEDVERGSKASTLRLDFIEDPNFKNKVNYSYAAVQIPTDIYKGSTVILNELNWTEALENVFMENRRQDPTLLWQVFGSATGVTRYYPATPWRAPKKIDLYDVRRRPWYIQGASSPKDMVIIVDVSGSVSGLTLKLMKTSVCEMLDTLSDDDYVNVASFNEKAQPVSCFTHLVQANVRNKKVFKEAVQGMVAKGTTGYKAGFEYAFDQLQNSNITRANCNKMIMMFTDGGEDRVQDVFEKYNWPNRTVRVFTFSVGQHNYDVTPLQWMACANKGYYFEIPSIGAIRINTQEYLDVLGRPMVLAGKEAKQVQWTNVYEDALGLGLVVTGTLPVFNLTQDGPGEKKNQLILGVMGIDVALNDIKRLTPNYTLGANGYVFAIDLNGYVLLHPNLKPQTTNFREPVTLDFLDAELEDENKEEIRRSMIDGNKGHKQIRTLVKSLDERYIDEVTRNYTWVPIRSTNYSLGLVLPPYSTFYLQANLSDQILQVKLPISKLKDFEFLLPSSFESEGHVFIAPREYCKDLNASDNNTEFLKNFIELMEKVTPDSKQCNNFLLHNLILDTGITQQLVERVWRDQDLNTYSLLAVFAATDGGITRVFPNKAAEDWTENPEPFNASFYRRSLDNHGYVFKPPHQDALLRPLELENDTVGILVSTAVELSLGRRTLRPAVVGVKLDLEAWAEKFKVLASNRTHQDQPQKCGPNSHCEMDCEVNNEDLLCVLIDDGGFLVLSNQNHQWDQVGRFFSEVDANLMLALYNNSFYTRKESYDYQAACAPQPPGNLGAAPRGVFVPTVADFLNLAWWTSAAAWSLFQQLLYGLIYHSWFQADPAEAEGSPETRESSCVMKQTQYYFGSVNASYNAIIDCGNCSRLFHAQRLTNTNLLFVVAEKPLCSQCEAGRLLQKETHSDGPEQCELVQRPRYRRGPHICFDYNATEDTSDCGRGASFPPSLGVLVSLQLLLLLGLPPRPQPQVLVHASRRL
# Test protocol: [3H]Gabapentin A2DR2 binding assay (filter, Biological Method 4)
# Assay conditions: displacement of [3H]-gabapentin
# Method: HEK 293 recombinant cells expressing A2DR1 or A2DR2 protein are harvested and washed in phosphate buffered saline (“PBS”). […] In one version, the binding assay is set up in a 96-well format using deep-well polypropylene plates. […] Non-specific binding for each plate is determined by the addition of 10 μM of pregabalin instead of test compound in a few of the 96 wells. […]
Items are presented alongside their recorded IC50.

Compound	Test target	IC50
O=C(NC1CCC2NC(C(=O)O)CC2C1)C1CCCCC1 (stereo not drawn)	alpha-2-delta receptor 2 (A2DR2) (Homo sapiens, UniProt Q9NY47)	≥ 10 µM
CN1[C@H](C(=O)NS(=O)(=O)C(F)(F)F)C[C@@H]2CCCC[C@@H]21	alpha-2-delta receptor 2 (A2DR2) (Homo sapiens, UniProt Q9NY47)	≥ 10 µM
COC1CCC2CC(C(=O)O)NC2C1 (stereo not drawn)	alpha-2-delta receptor 2 (A2DR2) (Homo sapiens, UniProt Q9NY47)	2.23 µM
CN1C(C(=O)O)C[C@@H]2CCCC[C@@H]21 (mixture of isomers)	alpha-2-delta receptor 2 (A2DR2) (Homo sapiens, UniProt Q9NY47)	≥ 10 µM
CC1(C(=O)O)C[C@@H]2CCCC[C@@H]2N1 (mixture of isomers)	alpha-2-delta receptor 2 (A2DR2) (Homo sapiens, UniProt Q9NY47)	≥ 10 µM
O=C(NS(=O)(=O)C(F)(F)F)[C@@H]1C[C@@H]2CCCC[C@@H]2N1	alpha-2-delta receptor 2 (A2DR2) (Homo sapiens, UniProt Q9NY47)	≥ 10 µM
NC1CCC2NC(C(=O)O)CC2C1 (stereo not drawn)	alpha-2-delta receptor 2 (A2DR2) (Homo sapiens, UniProt Q9NY47)	≥ 10 µM
CC1CCC2NC(C(=O)O)CC2C1 (stereo not drawn)	alpha-2-delta receptor 2 (A2DR2) (Homo sapiens, UniProt Q9NY47)	0.29 µM
O=c1[nH]c([C@@H]2C[C@@H]3CCCC[C@@H]3N2)no1	alpha-2-delta receptor 2 (A2DR2) (Homo sapiens, UniProt Q9NY47)	≥ 10 µM
